System name: T1, Pum-HD (Drosophila melanogaster, UniProt P25822 1093-1426)
T1 sequence: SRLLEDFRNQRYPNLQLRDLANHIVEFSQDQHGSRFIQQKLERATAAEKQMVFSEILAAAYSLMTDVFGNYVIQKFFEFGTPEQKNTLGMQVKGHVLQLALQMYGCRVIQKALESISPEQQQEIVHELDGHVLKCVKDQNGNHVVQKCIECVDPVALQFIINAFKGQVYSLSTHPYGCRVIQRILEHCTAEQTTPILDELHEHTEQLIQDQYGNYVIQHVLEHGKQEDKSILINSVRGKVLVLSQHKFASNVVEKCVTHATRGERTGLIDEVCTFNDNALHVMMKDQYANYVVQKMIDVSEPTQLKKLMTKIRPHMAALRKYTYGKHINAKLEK
Run description: ITC
Listed here: items and their measured pKd.
Lab note — pKd values are minus log10 of concentrations in M.

Binder	pKd
UGUACAUA (ssRNA) [BoxB]	8.70

Q: Give its pKd value. Item: UUGUUGUCGAAAAU (ssRNA) [NRE2 minus BoxB]
Result: 5.92
